Catalogue of NADPH fluorescence slope values
- Assay System: Voltage-gated potassium channel subunit beta-2 (Rattus norvegicus) (UniProt P62483)
- Sequence (P62483 whole entry, looked up): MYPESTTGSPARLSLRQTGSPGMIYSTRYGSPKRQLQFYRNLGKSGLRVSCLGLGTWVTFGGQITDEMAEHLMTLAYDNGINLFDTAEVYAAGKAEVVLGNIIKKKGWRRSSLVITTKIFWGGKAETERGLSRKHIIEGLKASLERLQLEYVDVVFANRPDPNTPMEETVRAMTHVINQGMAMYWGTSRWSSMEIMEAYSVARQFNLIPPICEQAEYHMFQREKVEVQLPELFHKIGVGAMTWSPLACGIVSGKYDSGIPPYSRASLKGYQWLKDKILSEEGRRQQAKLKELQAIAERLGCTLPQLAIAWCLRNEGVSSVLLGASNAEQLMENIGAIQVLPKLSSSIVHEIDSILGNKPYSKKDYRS
- Test: enhancers of rat Kvbeta2 NADPH turnover – biochemical, NADPH fluorescence, primary screen (AID 623);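 further: fluorescence intensity change per second fitted from 20 to 320 s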
- Reported Conditions: Recombinant KvBeta, NADPH fluorescence decrease slope, 10 min; at 10 µM; hits give low values
The source made the active and inactive calls.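 How the source made its calls: active means NADPH fluorescence slope more negative than the mean of all samples by about 3 SD, 99.7% confidence; inactive means the rest.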

// solved cases for NADPH fluorescence slope follow
| Molecule | NADPH fluorescence slope |
| --- | --- |
| O=C(Cc1ccc(S(=O)(=O)N2CCCC2)s1)Nc1nc2c(s1)CCCC2 | -5.6e-05 (inactive) |
| O=C(CSc1nnnn1Cc1ccccc1)Nc1ccc2c(c1)OCO2 | -9.5e-06 (inactive) |
| COCCn1nnnc1C(c1cc2cc(C)cc(C)c2[nH]c1=O)N1CCN(c2ccccc2F)CC1 (stereo not drawn) | 0.000111 (inactive) |
| COc1ccc(CC(NC(C)=O)C(=O)NC2CCN(C(=O)Nc3ccc(C#N)cc3)CC2)cc1OC (stereo not drawn) | 8.5e-05 (inactive) |

Consider the molecule shown here: CCCc1ccc(C(C)NC(=O)c2cnccn2)cc1 (stereo not drawn) What is its recorded NADPH fluorescence slope? -1.5e-05 (inactive)

Consider the molecule shown here: `CCCCNC(=O)c1cc(-c2ccc(F)cc2)on1` What is its recorded NADPH fluorescence slope? -3.3e-05 (inactive)

Consider the molecule shown here: `CC(=O)Nc1ccc(NC2=CC(=O)CC(C)(C)C2)cc1` What is its recorded NADPH fluorescence slope? -5.8e-05 (inactive)

Consider the molecule shown here: `Fc1c(F)c(F)c(CSc2nc3ccccc3[nH]2)c(F)c1F` What is its recorded NADPH fluorescence slope? -3.7e-05 (inactive)

Consider the molecule shown here: CC1c2nc3ccccc3n2C(CC(=O)NCc2ccccn2)C(=O)N1Cc1ccccc1 (stereo not drawn) What is its recorded NADPH fluorescence slope? -1.2e-05 (inactive)

Consider the molecule shown here: `CCOc1cc(C)c(Cl)cc1S(=O)(=O)N(C)C` What is its recorded NADPH fluorescence slope? -5.1e-05 (inactive)

Consider the molecule shown here: Cc1cccc(C(=O)N2CCN(C(=O)c3cccc(C)c3)C(C)C2)c1 (stereo not drawn) What is its recorded NADPH fluorescence slope? 1.4e-05 (inactive)

Consider the molecule shown here: `CN(C)/C=c1\sc2c(C#N)cc(C(=O)c3ccc(Br)cc3)n2c1=O` What is its recorded NADPH fluorescence slope? -5.9e-05 (inactive)

Consider the molecule shown here: `CS(=O)(=O)Nc1ccc(C(=O)NCc2ccc3c(c2)OCO3)cc1` What is its recorded NADPH fluorescence slope? -1.7e-05 (inactive)

====

- Assay System: Muscarinic acetylcholine receptor M4 (Homo sapiens) (UniProt P08173)
- Sequence (P08173 whole entry, looked up): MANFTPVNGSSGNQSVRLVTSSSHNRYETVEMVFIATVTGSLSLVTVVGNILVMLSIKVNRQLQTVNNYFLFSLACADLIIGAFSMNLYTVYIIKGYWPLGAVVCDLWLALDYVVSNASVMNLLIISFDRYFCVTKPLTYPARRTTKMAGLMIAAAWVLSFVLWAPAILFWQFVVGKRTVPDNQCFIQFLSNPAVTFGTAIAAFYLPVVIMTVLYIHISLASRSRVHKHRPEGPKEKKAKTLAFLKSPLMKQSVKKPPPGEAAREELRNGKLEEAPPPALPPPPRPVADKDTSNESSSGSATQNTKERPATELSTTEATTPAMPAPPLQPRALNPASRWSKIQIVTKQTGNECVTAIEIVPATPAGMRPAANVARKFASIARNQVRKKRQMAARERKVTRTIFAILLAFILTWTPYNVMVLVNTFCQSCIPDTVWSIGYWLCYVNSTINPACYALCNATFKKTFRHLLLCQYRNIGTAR
- Test: M4-linked GIRK flux change, two-sided – cell-based, HEK293 M4/GIRK, thallium flux, BTC-AM, M4 allosteric agonist project, primary screen (AID 625);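 further: thallium influx through GIRK channels coupled to M4 in HEK293 cells with BTC-AM dye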
- Reported Conditions: at 10 µM, actives lie on both sides
Active and inactive are the calls of the source.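 The calls were made as follows: active = fluorescence slope after compound addition differing from the mean of all tested samples at 99.7% confidence, mostly higher but some lower; inactive = the rest.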
Catalogue of fluorescence slope values

// solved cases for fluorescence slope follow
| Molecule | fluorescence slope |
| --- | --- |
| O=C(CCn1c(=O)sc2ccccc21)Nc1cccnc1 | 0.00603 (inactive) |
| N#Cc1c(NC(=O)CSc2nc(N)cc(=O)[nH]2)sc2c1CCCCCC2 | 0.00398 (inactive) |
| CC(=O)N(c1ccc(N(C(C)=O)S(=O)(=O)c2cccs2)cc1)S(=O)(=O)c1cccs1 | 0.00408 (inactive) |
| Cc1nc2sc3c(c2c(=O)o1)CCC3 | 0.00356 (inactive) |
| CS(=O)(=O)Nc1ccc(S(=O)(=O)Nc2nccs2)cc1 | 0.00758 (inactive) |
| COc1cc(C(N)=O)ccc1OCc1ccccc1 | 0.00562 (inactive) |
| COc1ccc(C2=NOC(C(=O)NCCCN3CCOCC3)C2)cc1 (stereo not drawn) | 0.00417 (inactive) |

// moving on: another record for fluorescence slope
Consider the molecule shown here: `Cc1cc(NCCCn2ccnc2)n2c(nc3ccccc32)c1C#N` What is its recorded fluorescence slope? 0.00606 (inactive)

====

Catalogue of inhibition of aggregation values
- Test: reduction of polyQ htt aggregates in cells – imaging, exon1htt(103Q)mCFP cells, high-content imaging, primary screen (AID 483);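 further: compound exposure lasted 3 days before fixation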
- Reported Conditions: exon1htt(103Q)mCFP cell line, aggregate imaging, at 2 µM; hits give high values
# unit: % | format: bare number

// solved cases for inhibition of aggregation follow
| Compound | Recorded Metric | Observed Result |
| --- | --- | --- |
| O=C(c1ccccc1)c1coc2ccc(O)c(CN3CCOCC3)c12 | inhibition of aggregation | 8.4 |
| CCNCCNC(=O)c1c(O)c2ccccc2n(CC)c1=O | inhibition of aggregation | -5.8 |
| Cc1ccc(S(=O)(=O)N2CCCC2)cc1S(=O)(=O)N1CCCC1 | inhibition of aggregation | -7.5 |
| COC(=O)c1ccccc1S(=O)(=O)N(CCCN1CCOCC1)Cc1cccs1 | inhibition of aggregation | 2.9 |
| COc1ccc(-c2cc(C(F)F)n3ncc(C(=O)NCC4CCCO4)c3n2)cc1 (stereo not given) | inhibition of aggregation | -15.8 |

Consider the compound shown here: O=C(CN1C(=O)c2ccccc2C1=O)NCC1COc2ccccc2O1 (stereo not given) What is its recorded inhibition of aggregation? 12.6

Consider the compound shown here: `CCOC(=O)CSc1nc2ccccc2n2cnnc12` What is its recorded inhibition of aggregation? 13.5

Consider the compound shown here: `Cc1cc(C)nc(NS(=O)(=O)c2ccc(N)cc2)n1` What is its recorded inhibition of aggregation? -9.6

Consider the compound shown here: `COc1ccc(-c2ccc(-c3nnc(-c4ccncc4)o3)cc2)cc1` What is its recorded inhibition of aggregation? 5.3

Consider the compound shown here: `COc1ccc(OC)c(NC(=O)CSc2nc3ccccc3c(=O)n2CCNC(C)=O)c1` What is its recorded inhibition of aggregation? 10.1

Consider the compound shown here: `Cc1cc(C)cc(NC(=O)N2CCC(c3nc4ccccc4o3)CC2)c1` What is its recorded inhibition of aggregation? -19.5

Consider the compound shown here: `N#Cc1cn(CC(=O)N2CCCC2)c2ccccc12` What is its recorded inhibition of aggregation? -10.4

====

Catalogue of inhibition values
- Test: TLR3 IRF3 reporter activation blockers – cell-based, poly I:C stimulus, luciferase, 10K MLSCN set, primary screen (AID 602277)
- Reported Conditions: HEK293-TLR3 RL24 IRF3 luciferase reporter, at 10 µM, hits give high values
Calls of active or inactive are those of the source.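 How the source made its calls: active means inhibition of the reporter signal at or above 50%; inactive means inhibition below 50%.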

// solved cases for inhibition follow
| Molecule | inhibition |
| --- | --- |
| Cc1nnc(SCC(=O)Nc2ccc3c(c2)OCCO3)n1CC1CCCO1 (stereo not drawn) | 7.29% (inactive) |
| O=C(Cn1nnc2c(cnn2-c2ccc(F)cc2)c1=O)c1ccccc1F | 10.7% (inactive) |
| CCN1CCN(c2c(Cl)cccc2NC(=O)c2ccco2)CC1 | 29.2% (inactive) |
| Nc1cc(C(=O)O)ccc1Nc1ccccc1 | -19% (inactive) |
| O=c1cc(COn2nnc3ccc(C(F)(F)F)cc32)nc2sccn12 | 14.9% (inactive) |
| COCCn1c(-c2ccc(OC)c(OC)c2)nc2ccccc21 | 11% (inactive) |
| CSc1nc(NC(C)(C)C)nc(Oc2ccc(=O)[nH]n2)n1 | 11.8% (inactive) |
| COCn1c(COc2ccccc2)nc2ccccc21 | -112% (inactive) |

Consider the molecule shown here: `Cc1cc(C)nc(SCc2nnc(SCc3ccccc3Cl)o2)n1` What is its recorded inhibition? 0.418% (inactive)

Consider the molecule shown here: `CN(C(=O)c1ccccn1)c1nnc(-c2ccncc2)s1` What is its recorded inhibition? -3.15% (inactive)

Consider the molecule shown here: `CCOC(=O)c1cc(-c2ccc(Cl)s2)nc2c1c(C)nn2C` What is its recorded inhibition? -18.9% (inactive)

Consider the molecule shown here: `CN(CCC#N)C(=O)COC(=O)c1ccc(Cl)c(S(N)(=O)=O)c1` What is its recorded inhibition? 25.4% (inactive)

Consider the molecule shown here: `CCOc1ccc2[nH]c(=O)c(CN(Cc3ccccc3)C(=O)N3CCCC3)cc2c1` What is its recorded inhibition? 25.9% (inactive)

====

Catalogue of fluorescence slope values
- Assay System: Voltage-gated potassium channel subunit beta-2 (Rattus norvegicus)
- Test: inhibitors of rat Kvbeta2 reductase activity – biochemical, NADPH fluorescence, primary screen (AID 622);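 further: slope of raw intensity against log time taken from 70 to 1610 s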
- Reported Conditions: recombinant KvBeta, 4-cyanobenzaldehyde reduction, at 10 µM, hits give high values
Enter a number only.

| Compound | fluorescence slope |
| --- | --- |
| COc1ccccc1S(=O)(=O)n1cc(Cc2ccccc2)c(N)n1 | -0.493 |

Consider the compound shown here: `Cc1cc(C)nc(N2CCC(C(=O)NCc3cccc(C(F)(F)F)c3)CC2)n1` What is its recorded fluorescence slope? -0.227

Consider the compound shown here: `O=C(NCc1ccccc1)N1CCn2c(nc3ccccc32)C1` What is its recorded fluorescence slope? -0.413

Value source: PubChem BioAssay
